# target.of.assay: hNEU2 (human cytosolic sialidase) (Homo sapiens)
# Construct: made in house
# Sequence (Q9Y3R4 whole entry): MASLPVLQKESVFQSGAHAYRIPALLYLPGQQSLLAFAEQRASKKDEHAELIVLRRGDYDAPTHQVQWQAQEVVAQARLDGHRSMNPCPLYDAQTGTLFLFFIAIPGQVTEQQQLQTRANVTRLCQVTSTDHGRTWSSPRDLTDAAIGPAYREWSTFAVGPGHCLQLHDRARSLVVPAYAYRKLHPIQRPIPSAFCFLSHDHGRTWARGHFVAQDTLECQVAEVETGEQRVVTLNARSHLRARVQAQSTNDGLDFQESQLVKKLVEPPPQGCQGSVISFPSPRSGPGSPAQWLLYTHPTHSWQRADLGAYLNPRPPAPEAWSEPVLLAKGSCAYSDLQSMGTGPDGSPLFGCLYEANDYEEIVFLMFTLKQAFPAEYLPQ
# test: Fluorescence-based inhibition assay (substrate Neu5Acα2-3GalβMU, β-galactosidase coupled)
# Type: biochemical
# details: inhibitor 8.0 μM, substrate Neu5Acα2-3GalβMU 8.0 μM; Example 2, Table 2; read-out: Percentage inhibition against hNEU2
metric: inhibition at 8 µM

# compound, metric, result
data = [
    ("CC(=O)N[C@@H]1C(O)C[C@](OCC2O[C@@H](Oc3ccc([N+](=O)[O-])cc3)C(O)C(O)[C@H]2O)(C(=O)O)OC1[C@H](O)[C@H](O)CO (stereo partly drawn) [Neu5Acα2-6GalβpNP, reference compound]", "inhibition at 8 µM", "0%"),
    ("CC(=O)N[C@H]1[C@H]([C@H](O)[C@H](O)CO)OC(O)(C(=O)O)C[C@@H]1O (stereo partly drawn) [Neu5Ac (1), N-Acetylneuraminic acid, reference compound]", "inhibition at 8 µM", "1.7%"),
    ("CC(=O)N[C@@H]1C(N)C[C@](OCC2O[C@@H](Oc3ccc([N+](=O)[O-])cc3)C(O)C(O)[C@H]2O)(C(=O)O)OC1[C@H](O)[C@H](O)CO (stereo partly drawn)", "inhibition at 8 µM", "0%"),
]

----------
This section presents compounds with their documented inhibition at 8 µM values.
# target.of.assay: UniProt A0A193ACB1
# test: Fluorescence-based inhibition assay (substrate Neu5Acα2-3GalβMU, β-galactosidase coupled)
# Format: biochemical, influenza A virus A/Kansas/14/2017 (H3N2)
# details: read-out: percentage inhibition against N2-Kan17
metric: inhibition at 8 µM

# compound, target.of.assay, metric, result
records = [
    ("CC(=O)N[C@@H]1C(O)C[C@](OC2C(O)[C@H](Oc3ccc([N+](=O)[O-])cc3)OC(CO)[C@@H]2O)(C(=O)O)OC1[C@H](O)[C@H](O)CO (stereo partly shown) [Neu5Acα2-3GalβpNP, reference compound]", "UniProt A0A193ACB1", "inhibition at 8 µM", "0.1%"),
    ("CC(=O)N[C@@H]1C(NC(=N)N)C[C@](OC2C(O)[C@H](Oc3ccc([N+](=O)[O-])cc3)OC(CO)[C@@H]2O)(C(=O)O)OC1[C@H](O)[C@H](O)CO (stereo partly shown)", "UniProt A0A193ACB1", "inhibition at 8 µM", "94.9%"),
    ("CC(=O)N[C@H]1[C@H]([C@H](O)[C@H](O)CO)O[C@@](O[C@H]2[C@@H](O)[C@@H](CO)O[C@@H](Oc3ccc([N+](=O)[O-])cc3)[C@@H]2O)(C(=O)O)C[C@@H]1OC(C)=O [Neu4,5Ac2α2-3GalβpNP, Neu4,5Acα2-3GalβpNP, reference compound]", "UniProt A0A193ACB1", "inhibition at 8 µM", "1.6%"),
    ("CC(=O)N[C@@H]1C(N=[N+]=[N-])C[C@](OCC2O[C@@H](Oc3ccc([N+](=O)[O-])cc3)C(O)C(O)[C@H]2O)(C(=O)O)OC1[C@H](O)[C@H](O)CO (stereo partly shown)", "UniProt A0A193ACB1", "inhibition at 8 µM", "0%"),
]

----------
This section presents compounds with their documented inhibition at 8 µM values.
# target.of.assay: NB-Phu13 (IBV neuraminidase) (Influenza B virus, UniProt A0A1S5RAG6)
# test: Fluorescence-based inhibition assay (substrate Neu5Acα2-3GalβMU, β-galactosidase coupled)
# Assay type: biochemical, influenza B virus B/Phuket/3073/2013
# details: read-out: percentage inhibition against NB-Phu13
metric: inhibition at 8 µM (%)

# compound, metric, numeric.result
records = [
    ("CC(=O)NC1C[C@](OC2C(O)[C@H](Oc3ccc([N+](=O)[O-])cc3)OC(CO)[C@@H]2O)(C(=O)O)OC([C@H](O)[C@H](O)CO)[C@@H]1NC(C)=O (stereo partly shown)", "inhibition at 8 µM", 0.9),
    ("CC(=O)N[C@@H]1C(N)C[C@](OCC2O[C@@H](Oc3ccc([N+](=O)[O-])cc3)C(O)C(O)[C@H]2O)(C(=O)O)OC1[C@H](O)[C@H](O)CO (stereo partly shown)", "inhibition at 8 µM", 9.8),
    ("CC(=O)N[C@@H]1C(N=[N+]=[N-])C[C@](OC2C(O)[C@H](Oc3ccc([N+](=O)[O-])cc3)OC(CO)[C@@H]2O)(C(=O)O)OC1[C@H](O)[C@H](O)CO (stereo partly shown)", "inhibition at 8 µM", 0.9),
    ("CC(=O)N[C@@H]1C(N=[N+]=[N-])C[C@](OCC2O[C@@H](Oc3ccc([N+](=O)[O-])cc3)C(O)C(O)[C@H]2O)(C(=O)O)OC1[C@H](O)[C@H](O)CO (stereo partly shown)", "inhibition at 8 µM", 2.6),
]
